# credit: ChEMBL document CHEMBL5665443

Target: Uracil-DNA glycosylase (Homo sapiens) (UniProt P13051);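 note: UNG excision on a quenched double-stranded DNA oligo probe, with APE1 added for strand incision and turnover, read as fluorescence at 594 nm as strands separate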
Sequence (P13051 whole entry): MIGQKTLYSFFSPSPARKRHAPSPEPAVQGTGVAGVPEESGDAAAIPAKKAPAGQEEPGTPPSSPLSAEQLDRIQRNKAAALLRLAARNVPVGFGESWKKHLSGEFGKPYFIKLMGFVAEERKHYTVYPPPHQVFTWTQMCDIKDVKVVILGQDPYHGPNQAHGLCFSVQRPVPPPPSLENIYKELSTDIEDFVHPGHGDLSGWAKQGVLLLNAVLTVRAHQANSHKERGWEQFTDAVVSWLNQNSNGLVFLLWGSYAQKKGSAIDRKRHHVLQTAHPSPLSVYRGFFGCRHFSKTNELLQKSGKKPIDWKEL
Details: Compound Concentration 10.0 uM, Hit No
Description: Inhibition of UNG by quantifying inhibition of UNG-mediated cleavage and dissociation of quenched duplex DNA oligonucleotides, measured as fluorescence at 594 nm. To generate a functional strand incision and increase turn-over this assay is coupled to APE1.
We begin with a simple list: items and their reported inhibition.
Respond numerically; units are % and should not be typed.

In the examples that follow, each entry is paired with its recorded inhibition.
Entry O=C(c1cc2c(cc1F)OC(c1ccc(F)cc1)(c1ccc(Cl)cc1Cl)O2)N1CCOCC1 (stereo not given) ; inhibition = -5.46

Entry CCCc1nc2c(C)cc(-c3nc4ccccc4n3C)cc2n1Cc1ccc(-c2ccccc2C(=O)O)cc1 ; inhibition = -6.03

Entry CC1(C)CCC(C)(C)c2cc(NC(=O)c3ccc(C(=O)O)cc3)ccc21 ; inhibition = 0.0471

Entry O=S(=O)(Nc1ccc(C(O)(C(F)(F)F)C(F)(F)F)cc1)c1cccs1 ; inhibition = 4.47

Entry CC1CCN(c2ccnc(NCc3cn(C)cn3)n2)CC1 ; inhibition = 5.91

Entry O=C(NCCCC1CCCCC1)c1ccc(CNC(=O)c2cnn(-c3ccccc3)c2C(F)(F)F)cc1 ; inhibition = 0.115

Entry C[C@H](NC(=O)c1c(C(F)F)nn(C)c1Oc1cccc(C(F)(F)F)c1)c1ccc(C(=O)O)cc1 ; inhibition = -7.93

Entry Cc1ccc2c(c1CCC(=O)O)CC[C@@H](NS(=O)(=O)c1ccc(Cl)cc1)C2 ; inhibition = -7.64

Entry Cc1cc(-c2ccnc(Nc3cnn(C)c3)n2)ccc1CNC(=O)N1CC(OC(C)C)C1 ; inhibition = 4.16

Entry Cn1nc(C(=O)NCc2ccc(C(=O)O)cc2)cc1-c1ccc2[nH]ccc2c1 ; inhibition = 0.276

Next:
Entry Cc1ccnc(Nc2nc(-c3ccccn3)cs2)c1 ; inhibition = -7.33

---

Target: Methyl-CpG-binding domain protein 4 (Homo sapiens)
Conditions: Compound Concentration 10.0 uM, Hit No
Description: Inhibition of MBD4 by quantifying inhibition of MBD4-mediated cleavage and dissociation of quenched duplex DNA oligonucleotides, measured as fluorescence at 594 nm. To generate a functional strand incision and increase turn-over this assay is coupled to APE1.
quantity.measured: inhibition (%)
Respond numerically; units are % and should not be typed.

Entry Nc1ncnc2c1ncn2[C@@H]1O[C@H](CO)[C@@H](O)[C@H]1O ; inhibition = -3.22

Entry CCOC(=O)c1cc(C#N)c(N2CCC(C(=O)NS(=O)(=O)Cc3ccccc3)CC2)nc1C ; inhibition = 12

Entry O=c1ccc2c(OCCCCOc3ccccc3)c3ccoc3cc2o1 ; inhibition = 11.1

---

Target: Methyl-CpG-binding domain protein 4 (Homo sapiens);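 note: MBD4 activity read as fluorescence at 594 nm from cleavage and release of a quenched duplex DNA oligonucleotide, with APE1 coupled to incise the strand and raise turnover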
Details: Compound Concentration 1.0 uM, Hit No
We begin with a simple list: items and their reported inhibition.
Respond numerically; units are % and should not be typed.

Entry CNCc1ccccc1-c1csc([C@H](C)Nc2nc(C)nc3cc(OC)c(OC)cc23)c1 ; inhibition = 58.7

Entry COC[C@H](NC(=O)c1ccn(S(C)(=O)=O)c1)C(=O)Nc1nc(-c2cccc(-c3ccn(C)n3)c2)cs1 ; inhibition = 43.1

Entry Cc1ccc(-c2cnc([C@@]3(O)CC[C@H](C(=O)O)C(C)(C)C3)s2)cc1Nc1cccc(C(F)(F)F)n1 ; inhibition = 1.64

Entry Nc1c(C(=O)NCc2ccc(C(=O)NCCCC3CCCCC3)cc2)cnn1-c1ccccc1 ; inhibition = 59.9

Entry CNC(=O)c1ccc(Nc2ncc(C(F)(F)F)c(NCc3nccnc3N(C)S(C)(=O)=O)n2)cc1 ; inhibition = 13.6

---

Molecular target: Endonuclease 8-like 2 (Homo sapiens) (UniProt Q969S2);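 note: fluorescence at 594 nm reports NEIL2 cutting and release of a quenched double-stranded DNA oligo substrate, reduced signal read as inhibition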
Sequence (whole entry): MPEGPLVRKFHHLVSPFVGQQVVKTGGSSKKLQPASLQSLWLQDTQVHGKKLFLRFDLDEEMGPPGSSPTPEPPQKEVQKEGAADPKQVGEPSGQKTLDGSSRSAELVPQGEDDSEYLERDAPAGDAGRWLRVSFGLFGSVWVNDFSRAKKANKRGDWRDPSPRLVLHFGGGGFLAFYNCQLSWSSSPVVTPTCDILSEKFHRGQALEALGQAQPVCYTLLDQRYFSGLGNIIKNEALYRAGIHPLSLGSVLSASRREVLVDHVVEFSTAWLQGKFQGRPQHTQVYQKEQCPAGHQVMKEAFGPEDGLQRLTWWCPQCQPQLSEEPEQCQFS
Conditions: Compound Concentration 1.0 uM, Hit No
Description: Inhibition of NEIL2 by quantifying inhibition of NEIL2-mediated cleavage and dissociation of quenched duplex DNA oligonucleotides, measured as fluorescence at 594 nm.
quantity.measured: inhibition (%)
Respond numerically; units are % and should not be typed.

In the examples that follow, each entry is paired with its recorded inhibition.
Entry CN1C(=O)c2sccc2N(C)c2nc(Nc3ccc(S(N)(=O)=O)cc3)ncc21 ; inhibition = -6.76

Entry OCCn1cc(-c2ccc3c(c2)CCC3=NO)c(-c2ccncc2)n1 ; inhibition = -7.84

Entry Nc1c(C(=O)NCc2ccc(C(=O)NCCCC3CCCCC3)cc2)cnn1-c1ccccc1 ; inhibition = -8.91

Entry CS(=O)(=O)N1CCCC(NC(=O)[C@H](CCC2CCCCC2)NC(=O)c2ccc(CNC(=O)c3cnc4ccccn34)cc2)C1 (stereo partly drawn) ; inhibition = -2.03

Entry Cn1cc(-c2[nH]c3cc(NC(=O)[C@H](N)C4CCCCC4)cc4c3c2C=NNC4=O)cn1 ; inhibition = -5.15

Next:
Entry CN(c1ccnc(CNc2nc(Nc3ccc4c(c3)CC(=O)N4)ncc2C(F)(F)F)n1)S(C)(=O)=O ; inhibition = -6.14

Entry COc1cc(N[C@@H]2CCCC[C@]2(O)C(F)(F)F)ccc1F ; inhibition = 4.36

Entry Cc1nc(-c2cn3c(n2)-c2ccc(-c4cnn(C(C)(C)C(N)=O)c4)cc2OCC3)n(C(C)C)n1 ; inhibition = -7.57

Entry CC(C)CC(=O)N1CCc2nc(-c3ccc(Br)cc3)nc(N(C)Cc3ccccc3)c2C1 ; inhibition = -1.25

Entry CN1CCN(c2ccc(OC(F)(F)F)c(Nc3ncc4c(n3)-c3c(c(C(N)=O)nn3CCO)CC4)c2)CC1 ; inhibition = -8.92

Entry COc1cc(Nc2ncc3c(n2)-c2ccc(Cl)cc2C(c2c(F)cccc2OC)=NC3)ccc1C(=O)O ; inhibition = -9.46

Entry Cc1cc(Nc2nccc(C)n2)cc(-c2cnc([C@@]3(O)CC[C@H](C(=O)O)C(C)(C)C3)s2)c1 ; inhibition = -5.61

Entry O=S(=O)(NC1CCC(c2cc(F)ccc2F)(S(=O)(=O)c2ccc(Cl)cc2)CC1)C(F)(F)F (stereo not drawn) ; inhibition = -8.91

Entry C[C@@H]1CN(c2cc(-c3nn(C)c4ccc(OC5(C)CC5)cc34)ncn2)C[C@H](C)O1 ; inhibition = -5.15

Entry CCCCN(CCCC)C(=O)CN1C[C@H](c2cc(OC)c3c(c2)OCO3)[C@@H](C(=O)O)[C@@H]1CC(C)(C)CCC ; inhibition = -9.42

Entry C[C@@H]1CCNC(=O)c2cc3ccc(C(=O)Nc4nc5ccccc5n4CCCN(C)C)cc3n21 ; inhibition = -5.96

Entry O=C(NCCCC1CCCCC1)c1ccc(CNC(=O)c2cnn(-c3ccccc3)c2C(F)(F)F)cc1 ; inhibition = -8.65

Entry COc1cccc(CNC(=O)c2nc3scc(COCc4ccc(C(=O)O)cc4)c3c(=O)[nH]2)c1 ; inhibition = -2.53

---

We begin with a simple list: items and their reported inhibition.
Target: Endonuclease III-like protein 1 (Homo sapiens);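 note: enzyme assay tracking NTHL1 cutting and release of a quenched double-stranded DNA oligo substrate, read as fluorescence at 594 nm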
Details: Compound Concentration 10.0 uM, Hit No
Description: Inhibition of NTHL1 by quantifying inhibition of NTHL1-mediated cleavage and dissociation of quenched duplex DNA oligonucleotides, measured as fluorescence at 594 nm.
Where a SMILES comes first, the peptide text is derived from it.
Respond numerically; units are % and should not be typed.

Entry COc1cnccc1Nc1nc(-c2nn(Cc3c(F)cc(OCCO)cc3F)c3ccccc23)ncc1OC ; inhibition = -7.86

Entry CC(C)c1ccc(CC(=O)N2CCC[C@@H](c3cccc(OC(C)(C)C(=O)O)c3)C2)cc1 ; inhibition = 8.57

Entry O=C(O)c1cccc(/C=C2/C[C@@H]3[C@@H](/C=C/[C@H](O)C4CCCCC4)[C@H](O)C[C@@H]3O2)c1 ; inhibition = 15.4

Entry C[C@@H](OC[C@@]1(c2ccccc2)CC[C@]2(CCC(=O)N2)CN1)c1cc(C(F)(F)F)cc(C(F)(F)F)c1 ; inhibition = -6.14

Entry CC[C@H](Nc1c(C#N)c(-c2ccc(-c3cccc(C)c3F)cc2)nc2cnccc12)C(=O)O ; inhibition = 5.22

Entry COC1(C[S@@+]([O-])c2ccccc2)CCN(CCc2c[nH]c3ccc(F)cc23)CC1 ; inhibition = 17.1

Entry Cc1cccc(C2CN(C)CCc3c2cc(O)c(O)c3Cl)c1 (stereo unspecified) ; inhibition = 7.17

Entry N=C(N)NCCC[C@H](NC(=O)C12CC3CC(CC(C3)C1)C2)C(=O)N[C@@H](Cc1ccccc1)C(N)=O ; inhibition = 13.8

Entry O=c1[nH]c(=O)c2nc3ccccc3nc2[nH]1 ; inhibition = 14.4

Entry O=C(O)C1CN(Cc2ccc(-c3nc4cc(Cc5ccccc5F)ccc4s3)c(F)c2)C1 ; inhibition = 11.4

Next:
Entry CSCC[C@H](NC(=O)[C@H](Cc1ccc(O)cc1)NC(=O)[C@H](CCCCN)NC(=O)[C@@H](N)Cc1c[nH]c2ccccc12)C(=O)N[C@H](C(=O)N[C@H](CCSC)C(N)=O)C(C)C ; inhibition = 21.2

Entry CC[C@H](C)[C@H](NC(=O)[C@H](Cc1ccc(O)cc1)NC(=O)[C@@H](NC(=O)[C@H](CCCNC(=N)N)NC(=O)[C@@H](N)CC(=O)O)C(C)C)C(=O)N[C@@H](Cc1cnc[nH]1)C(=O)N[C@H](C)C(=O)O (HELM PEPTIDE1{D.R.V.Y.I.H.[dA]}$$$$V2.0) ; inhibition = 17.1

Entry C[C@H](NC(=O)c1c(C(F)F)nn(C)c1Oc1cccc(C(F)(F)F)c1)c1ccc(C(=O)O)cc1 ; inhibition = 16.6

Entry CCc1nn(CCCN2CCN(c3cccc(Cl)c3)CC2)c(=O)n1CCOc1ccccc1 ; inhibition = 7.79

Entry CN1C[C@@H](NS(=O)(=O)N(C)C)C[C@@H]2c3cccc4c3c(cn4C)C[C@H]21 ; inhibition = -8.51

Entry C[C@H](NC(=O)c1cnc2n1[C@](C)(Cc1ccc(C#N)cc1)C(=O)N2c1cc(Cl)c(F)c(Cl)c1)C(=O)NC1(c2ccccn2)CC1 ; inhibition = -4.57
